# assay_name: qHTS assay to identify small molecule agonists of the vitamin D receptor (VDR) signaling pathway - cell viability counter screen (AID 743224); further: nearly all actives have a fitted effect of over 50% in size
# test_conditions: VDR-bla HEK293T viability, CellTiter-Glo luminescence, 16 h; series mostly up to 62.6 µM
Inconclusive results are not listed. Active and inactive are the calls of the source. The call rests on the fitted dose curve; in most records, active means well fitted cell-killing curve with a large enough effect in the repeat runs; inconclusive means weak or mixed curves, or effect the other way; inactive means no such curve, though single readings can be large or run the other way.
assay_endpoint: outcome

1. c1ccc(OCCOc2ccccc2)cc1 : inactive
2. O=C(Oc1ccccc1)c1ccccc1 : inactive
3. C#C[C@]1(O)CC[C@H]2[C@@H]3CCC4=CC(=O)CC[C@@H]4[C@H]3CC[C@@]21C : inactive
4. CCN(CC)CCCC(C)Nc1ccnc2cc(Cl)ccc12 (configuration not stated) : inactive
5. Cc1occc(=O)c1O : inactive
6. O=C(O)c1ccc2c(c1)C(=O)OC2=O : inactive
7. CCCCCCCCCCCCc1ccccc1 : inactive

###

# assay_name: qHTS assay to identify small molecule antagonists of the retinoic acid receptor (RAR) signaling pathway (AID 1159552; further: nearly all actives have a fitted effect of over 50% in size)
# test_conditions: C3RL4 RARE luciferase reporter, retinol-stimulated, 6 h; series mostly up to 92.4 µM
Results filed as inconclusive are left out. Calls of active or inactive are those of the source. Calls follow the shape of the dose curve; as a rule, active = well fitted inhibition curve with a large enough effect in the repeat runs; inconclusive = weak or mixed curves, or effect the other way; inactive = no such curve, though single readings can be large or run the other way.
assay_endpoint: outcome

1) CC1=CCC2CC1C2(C)C (stereo unspecified) : inactive
2) O=C(O)c1ccc2c(c1)C(=O)OC2=O : inactive
3) CCCCC(CC)COC(=O)CS (stereo unspecified) : inactive
4) CN(C)CCC(c1ccccc1)c1ccccn1 (stereo unspecified) : inactive
5) CC(C)(C)[C@@H](O)[C@@H](Cc1ccc(Cl)cc1)n1cncn1 : inactive
6) CCCCCCCCCCCCS : inactive
7) CCCCCC1=CCCC1=O : inactive
8) OCC(CO)(CBr)CBr : inactive
9) O=C1CCC(N2C(=O)c3ccccc3C2=O)C(=O)N1 (stereo unspecified) : inactive
10) Nc1ccccc1[N+](=O)[O-] : inactive
11) CCN(CC)c1ccc(C(=O)c2ccccc2C(=O)O)c(O)c1 : inactive
12) c1ccc2scnc2c1 : inactive
13) O=C(O)CC(C(=O)O)C(CC(=O)O)C(=O)O (stereo unspecified) : inactive
14) C/C=C1/CC2C=CC1C2 (stereo unspecified) : inactive
15) N[C@@H](Cc1cc(I)c(Oc2cc(I)c(O)c(I)c2)c(I)c1)C(=O)O : inactive
16) CCc1cccc(C)c1N : inactive
17) CCC(O)OC(O)CC (stereo unspecified) : inactive
18) CCCCCOC(C)=O : inactive
19) CCCCCCCCCCCCCCCO : inactive
20) Cc1ccc(S(N)(=O)=O)cc1 : inactive
21) ON=C1CCCCC1 : inactive
22) CC1CCC(C(C)C)C(O)C1 (stereo unspecified) : inactive
23) CC(=O)Nc1ccccc1 : inactive
24) NNc1nncc2ccccc12 : inactive
25) O=C(O)c1cc(O)c(O)c(O)c1 : inactive
26) CC(=O)CC(=O)Nc1ccccc1C : inactive
27) C[C@H]1C[C@@H]2[C@H]([C@@H](O)C[C@@]3(C)[C@H]2CC[C@]3(O)C(=O)CO)[C@@]2(C)C=CC(=O)C=C12 : inactive
28) O=C(O)c1cc(=O)c2c(OCC(O)COc3cccc4oc(C(=O)O)cc(=O)c34)cccc2o1 : inactive
29) C#CCN(C)Cc1ccccc1 : inactive
30) CCCSc1ccc2nc(NC(=O)OC)[nH]c2c1 : inactive
31) CCCCCCCCCCCCOCCO : inactive
32) CSCCC=O : inactive
33) C=CCOC(=O)c1ccccc1C(=O)OCC=C : inactive
34) COc1cc(Cc2cnc(N)nc2N)cc(OC)c1OC : inactive
35) Cc1ccc(N(C)C)cc1 : inactive
36) CC(=O)CC(=O)Nc1ccccc1 : inactive
37) O=C=NCCCCCCN=C=O : inactive
38) O=C(O)c1ccccc1C(c1ccc(O)cc1)c1ccc(O)cc1 : inactive
39) CCOC(=O)NNc1nncc2ccccc12 : inactive
40) O=C(OCCOCCOC(=O)c1ccccc1)c1ccccc1 : inactive
41) COc1ccc(NC(C)=O)cc1N : inactive
42) CCCCCC/C(C=O)=C\c1ccccc1 : inactive
43) C=CCNC(N)=S : inactive
44) c1ccc2c(c1)ccc1ccccc12 : inactive
45) O=C(CC(C(=O)OC1CCCCC1)S(=O)(=O)O)OC1CCCCC1 (stereo unspecified) : inactive
46) CCCCC(CC)COC(=O)CCCCC(=O)OCC(CC)CCCC (stereo unspecified) : inactive

###

# assay_name: qHTS assay to identify small molecule agonists of the TGF-beta/Smad signaling pathway (AID 1346859)
# test_conditions: SBE-bla HEK293T, TGF-beta/Smad beta-lactamase reporter, 5 h; series mostly up to 76.8 µM
Inconclusive results are not listed. Active and inactive are the calls of the source. Calls come from the whole dose curve; as a rule, active = well fitted activation curve with a large enough effect in the signal ratio in the repeat runs (not every such curve was filed as active); inconclusive = weak or mixed curves; inactive = flat fitted curve, though single readings scatter; the % refers to the signal ratio.
assay_endpoint: outcome

1) CC(C)(N)CO : inactive
2) COCCCOc1ccnc(CS(=O)c2nc3ccccc3[nH]2)c1C (stereo not given) : inactive
3) COc1ccc(Nc2ccccc2)c(C)c1 : inactive
4) CCCCCCCCC/C=C/CC1CC(=O)OC1=O (stereo not given) : inactive
5) O=C(O)[C@H](O)[C@@H](O)[C@H](O)[C@H](O)CO : inactive
6) CC(C)CC(=O)CC(C)C : inactive
7) O=C(Oc1ccccc1)c1ccccc1 : inactive
8) Cc1cnc(C(=O)NCCc2ccc(S(=O)(=O)NC(=O)NC3CCCCC3)cc2)cn1 : inactive
9) CCCCCCCC(=O)OC : inactive
10) CCCCCCCCCCCCc1ccccc1 : inactive
11) c1c[nH]cn1 : inactive
12) CCCCC(CC)COC(=O)C(C#N)=C(c1ccccc1)c1ccccc1 (stereo not given) : inactive
13) O=[N+]([O-])c1ccc(/C=C/c2ccc([N+](=O)[O-])cc2S(=O)(=O)O)c(S(=O)(=O)O)c1 : inactive
14) CSCCC=O : inactive
15) CC1=CC(=O)NS(=O)(=O)O1 : inactive

###

# assay_name: qHTS assay to test for compound auto fluorescence at 460 nm (blue) in HEK293 cells (AID 720678)
# test_conditions: blue autofluorescence 405/460 nm; series mostly up to 91.3 µM
Calls of active or inactive are those of the source. Calls come from the whole dose curve; as a rule, active = well fitted curve in the direction sought with a large enough effect in the repeat runs; inconclusive = weak or mixed curves; inactive = flat fitted curve, though single readings scatter.
assay_endpoint: outcome

1) Cc1cccc(O)c1 : inactive
2) c1ccc2c(c1)ccc1ccccc12 : inactive
3) CCCCOC(=O)COc1ccc(Cl)cc1Cl : inactive
4) O=C(Oc1ccccc1)c1ccccc1 : inactive
5) COc1cc(Cc2cnc(N)nc2N)cc(OC)c1OC : inactive
6) O=C(CC(C(=O)OC1CCCCC1)S(=O)(=O)O)OC1CCCCC1 (centres undefined) : inactive
7) O=C(O)CCCC[C@@H]1SC[C@@H]2NC(=O)N[C@@H]21 : inactive
8) CCCCCCOCCO : inactive
9) C=C(C)C(=O)OCCOCCOCCOC(=O)C(=C)C : inactive
10) CN(C)CCC(c1ccccc1)c1ccccn1 (centres undefined) : inactive
11) CC1=CCC2CC1C2(C)C (centres undefined) : inactive
12) O=C(O)CCCCCCCCCCC(=O)O : inactive
13) CCCCC(CC)COC(=O)CCCCC(=O)OCC(CC)CCCC (centres undefined) : inactive
14) CCCCCCCCC/C=C/CC1CC(=O)OC1=O (centres undefined) : inactive

###

# assay_name: qHTS assay to identify small molecule agonists of the AP-1 signaling pathway - cell viability counter screen (AID 1159525); further: nearly all actives have a fitted effect of over 55% in size
# test_conditions: ME-180 (cervical carcinoma) AP-1-bla cells viability, ATP luminescence, 5 h; series mostly up to 76.8 µM
Results filed as inconclusive are left out. The source made the active and inactive calls. Calls follow the shape of the full dose curve.
assay_endpoint: outcome

1) C=C(C)C(=O)OCCOCCOCCOC(=O)C(=C)C : inactive
2) O=P(OC(CCl)CCl)(OC(CCl)CCl)OC(CCl)CCl : inactive
3) COc1ccc(Cl)cc1C(=O)NCCc1ccc(S(=O)(=O)NC(=O)NC2CCCCC2)cc1 : inactive
4) CCCCC(CC)CO (centres undefined) : inactive
5) OC[C@H]1O[C@@](CO)(O[C@H]2O[C@H](CO)[C@@H](O)[C@H](O)[C@H]2O)[C@@H](O)[C@@H]1O : inactive
6) c1ccc2scnc2c1 : inactive
7) O=C1CCC(N2C(=O)c3ccccc3C2=O)C(=O)N1 (centres undefined) : inactive
8) CC(=O)OCC(=O)[C@@]12N=C(C)O[C@@H]1C[C@H]1[C@@H]3CCC4=CC(=O)C=C[C@]4(C)[C@H]3[C@@H](O)C[C@@]12C : inactive
9) CCCCCC(N)=O : inactive
10) OCC(CO)(CBr)CBr : inactive
11) COc1ccc(Nc2ccccc2)c(C)c1 : inactive
12) O=C(O)CC(C(=O)O)C(CC(=O)O)C(=O)O (centres undefined) : inactive
13) Cc1ccc(S(N)(=O)=O)cc1 : inactive
14) CCCCCOC(C)=O : inactive
15) CC1CCC(C(C)C)C(O)C1 (centres undefined) : inactive
16) O=c1[nH]nnc2ccccc12 : inactive
17) Nc1ccccc1[N+](=O)[O-] : inactive
18) CN(C)CCC(c1ccc(Cl)cc1)c1ccccn1 (centres undefined) : inactive
19) Cc1cccc(O)c1 : inactive
20) FC(F)(F)c1ccc(Cl)c(Cl)c1 : inactive
21) O=C(O)c1ccc2c(c1)C(=O)OC2=O : inactive
22) OCc1cccnc1 : inactive
23) CCCCCCCCCCCCc1ccccc1 : inactive
24) O=c1[nH]c(=O)n([C@H]2CCCO2)cc1F : inactive
25) Cc1ccc2oc(=O)ccc2c1 : inactive
26) O=C(CC(C(=O)OC1CCCCC1)S(=O)(=O)O)OC1CCCCC1 (centres undefined) : inactive
27) COS(C)(=O)=O : inactive
28) CC1=CCC2CC1C2(C)C (centres undefined) : inactive
29) CC(c1cc2ccccc2s1)N(O)C(N)=O (centres undefined) : inactive
